Test: Fraction unbound in rat plasma at 10 mg/kg, po by rapid equilibrium dialysis method
Format: ADME, organism-based
Parameters: dose 10 mg/kg, route oral
RECORDED ENDPOINT: fraction unbound
In your answer, state the number alone without any accompanying words.

Entry under test: `C[C@H]1COCCN1C[C@H]1CN(S(=O)(=O)c2cccs2)CCN1c1ccc([C@@](C)(O)C(F)(F)F)cc1` . Its fraction unbound was 0.037

----------
Catalogue of MRT readings, one per entry.
Test: Mean residence time in rat at 10 mg/kg, po
Type: ADME, organism-based
Set-up: dose 10 mg/kg, route oral
Conditions: in vivo
Please reply with the bare figure in h and do not write the unit itself.

> print(dat)
                               entry.smiles  quantitative.readout
1  Nc1ccc(S(=O)(=O)N2CCN(c3ccc(C(O)(C(F)(F)F)C(F)(F)F)cc3)CC2)cn1                   8.4
2  C[C@H]1COCCN1C[C@H]1CN(S(=O)(=O)c2cccs2)CCN1c1ccc([C@@](C)(O)C(F)(F)F)cc1                   4.4

Entry under test: `CC#C[C@H]1CN(S(=O)(=O)c2ccc(N)nc2)CCN1c1ccc(C(O)(C(F)(F)F)C(F)(F)F)cc1` . Its MRT was 6.2

Entry under test: `CC#C[C@H]1CN(S(=O)(=O)c2ccc(N)nc2)CCN1c1ccc([C@@](C)(O)C(F)(F)F)cc1` . Its MRT was 4.6

Entry under test: `CC#C[C@H]1CN(S(=O)(=O)c2ccc(N)nc2)CCN1c1ccc([C@](C)(O)C(F)(F)F)cc1` . Its MRT was 2.9

----------
Catalogue of pIC50 readings, one per entry.
Target: Glucokinase regulatory protein (Homo sapiens)
Sequence (Q14397 whole entry): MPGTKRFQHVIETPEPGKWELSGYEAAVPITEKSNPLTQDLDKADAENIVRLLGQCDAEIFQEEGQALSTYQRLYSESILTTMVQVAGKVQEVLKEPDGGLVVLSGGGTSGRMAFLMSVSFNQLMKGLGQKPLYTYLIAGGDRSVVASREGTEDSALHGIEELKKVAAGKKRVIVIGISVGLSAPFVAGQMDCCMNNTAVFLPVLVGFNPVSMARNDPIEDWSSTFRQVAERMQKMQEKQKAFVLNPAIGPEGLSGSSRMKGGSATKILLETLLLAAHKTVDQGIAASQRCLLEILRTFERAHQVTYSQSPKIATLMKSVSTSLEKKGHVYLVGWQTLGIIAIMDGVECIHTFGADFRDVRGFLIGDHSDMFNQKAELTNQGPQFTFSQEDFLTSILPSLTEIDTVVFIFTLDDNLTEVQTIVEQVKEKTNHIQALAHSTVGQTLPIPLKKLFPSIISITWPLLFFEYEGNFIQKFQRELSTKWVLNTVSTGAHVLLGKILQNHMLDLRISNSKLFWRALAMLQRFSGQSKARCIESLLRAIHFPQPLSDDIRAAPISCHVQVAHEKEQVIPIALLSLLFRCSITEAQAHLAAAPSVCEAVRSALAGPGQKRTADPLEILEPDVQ
Test: Inhibition of fluorescein-labeled human GK interaction with biotin-labeled human GKRP incubated for 20 mins prior to addition of fluorescein-labeled GK measured after 2 to 4 hrs by Alpha Screen assay
Note on pIC50: it is the negative log10 of concentration, concentration in mol/L.

For orientation, consider the following solved cases.
> print(dat)
                                   compound                         system.under.test  recorded.endpoint  quantitative.readout
1  Nc1ccc(S(=O)(=O)N2CCN(c3ccc(C(O)(C(F)(F)F)C(F)(F)F)cc3)C(C#CC3CC3)C2)cn1 (racemic)  Glucokinase regulatory protein (Homo sapiens)              pIC50                  6.11
2  C[C@](O)(c1ccc(N2CCN(S(=O)(=O)c3cccs3)C[C@@H]2CN2[C@@H]3COC[C@H]2[C@@H](O)C3)cc1)C(F)(F)F  Glucokinase regulatory protein (Homo sapiens)              pIC50                  7.25
3  Nc1cccc(S(=O)(=O)N2CCN(c3ccc(C(O)(C(F)(F)F)C(F)(F)F)cc3)CC2)c1  Glucokinase regulatory protein (Homo sapiens)              pIC50                  6.19
4  CC(O)(c1ccc(N2CCN(S(=O)(=O)c3cccs3)C[C@@H]2CN2[C@H]3COC[C@H]2[C@@H](O)C3)cc1)C(F)(F)F (mixture of isomers)  Glucokinase regulatory protein (Homo sapiens)              pIC50                  7.59
5  CC(O)(c1ccc(N2CCN(S(=O)(=O)c3cccs3)C[C@@H]2CN2C3CCC2COC3)cc1)C(F)(F)F (mixture of isomers)  Glucokinase regulatory protein (Homo sapiens)              pIC50                  8.70

Entry under test: `Nc1csc(S(=O)(=O)N2CCN(c3ccc(C(O)(C(F)(F)F)C(F)(F)F)cc3)CC2)c1` . Its pIC50 was 6.49

Entry under test: `C[C@](O)(c1ccc(N2CCN(S(=O)(=O)c3cccs3)C[C@@H]2CN2[C@H]3COC[C@@H]2[C@H](O)C3)cc1)C(F)(F)F` . Its pIC50 was 7.80

Entry under test: CC(O)(c1ccc(N2CCN(S(=O)(=O)c3cccs3)C[C@@H]2CN2CC3(COC3)C2)cc1)C(F)(F)F (mixture of isomers) . Its pIC50 was 6.28

Entry under test: CC(O)(c1ccc(N2CCN(S(=O)(=O)c3cccs3)C[C@@H]2CN2[C@H]3COC[C@H]2[C@H](O)C3)cc1)C(F)(F)F (mixture of isomers) . Its pIC50 was 7.36

Entry under test: CC(O)(c1ccc(N2CCN(S(=O)(=O)c3cccs3)C[C@@H]2CN2CCC(F)(F)CC2)cc1)C(F)(F)F (mixture of isomers) . Its pIC50 was 6.36

Entry under test: CC(O)(c1ccc(N2CCN(S(=O)(=O)c3cccs3)C[C@@H]2CN2CCS(=O)(=O)CC2)cc1)C(F)(F)F (mixture of isomers) . Its pIC50 was 6.46

Entry under test: `O=S(=O)(c1ccccc1)N1CCN(c2ccc(C(O)(C(F)(F)F)C(F)(F)F)cc2)CC1` . Its pIC50 was 6.00

Entry under test: `C[C@@](O)(c1ccc(N2CCN(S(=O)(=O)c3cccs3)C[C@@H]2CN2[C@H]3COC[C@@H]2[C@H](O)C3)cc1)C(F)(F)F` . Its pIC50 was 7.85

Entry under test: `C[C@@](O)(c1ccc(N2CCN(S(=O)(=O)c3cccs3)C[C@@H]2CN2[C@@H]3COC[C@H]2[C@@H](O)C3)cc1)C(F)(F)F` . Its pIC50 was 7.60
